Numbers sourced from the supplement of paper PMC11451515.

Let's look at some compounds and their measured cell viability.
# System: SEM cells
# method.summary: cell viability relative to DMSO control; higher = less cytotoxic
# test.settings: HPLM + 10% dialyzed FBS; 48 h; 46.1 µM
# unit: % | format: bare number

# compound, cell viability [%]
records = [
    ("COc1ccc(C2CNC(=O)C2)cc1OC1CCCC1 (stereo not drawn)", 101),
    ("O=C(O)C1=NC(C(=O)O)CC(/C=C/N2c3cc(O)c(OC4OC(CO)C(O)C(O)C4O)cc3CC2C(=O)O)=C1 (stereo not drawn)", 103),
    ("Nc1ncnc2c1c(-c1cnc3[nH]ccc3c1)nn2C1CCCC1", 11),
    ("CN1\\C(=C(\\O)C2=CC=CC=C2[S+]1([O-])=O)C(=O)NC3=NC=C(C)S3", 102),
]

Challenge: Param readout= cell viability; system= SEM cells; entry= `CC(C)C(=O)Nc1ccc([N+](=O)[O-])c(C(F)(F)F)c1` ; returns value.
Response given: 130

Challenge: Request: `COc1cc(OC)c(/C=C/[S+](=O)([O-])Cc2ccc(OC)c(NCC(=O)[O][Na])c2)c(OC)c1`
Response given: 13.4

Challenge: Same again, this time with `C[S+]([O-])(=O)C1=CC=C(C=C1)C/2=C(/C(=O)OC2)C3=CC=CC=C3`
Response given: 94.1

Challenge: Then this compound: `Cc1cnc(NC(=O)Nc2cc(Br)c(C)cc2OC[C@@H]2CNCCO2)cn1`
Response given: 22.5

Challenge: Another compound: `CC[C@H](C)[N]1C=C(C)C2=C1C=C(C=C2C(=O)NC\C3=C(C)\C=C(\C)NC3=O)C4=CC=C(N=C4)N5CCNCC5`
Response given: 99

Challenge: Repeat with C[C@]12CC[C@@H]3c4ccc(O)cc4C[C@@H](CCCCCCCCC[S+]([O-])CCCC(F)(F)C(F)(F)F)[C@H]3[C@@H]1CC[C@@H]2O (stereo partly drawn)
Response given: 109

Challenge: Item: `CC(C)(C)c1[nH]cnc1/C=c1\[nH]c(=O)/c(=C/c2ccccc2)[nH]c1=O`
Response given: 3.59

Challenge: Request: `CN1C[C@H]2c3ccccc3Oc3ccc(Cl)cc3[C@@H]2C1`
Response given: 6.31

Challenge: Item: `Cc1cc2c(F)c(Oc3ncnn4cc(OC[C@@H](C)O)c(C)c34)ccc2[nH]1`
Response given: 26.6

Challenge: Another compound to look at: `COc1ccc(-n2nc(C(N)=O)c3c2C(=O)N(c2ccc(N4CCCCC4=O)cc2)CC3)cc1`
Response given: 128

Challenge: Next compound: CNC1CCC(N(Cc2cccc(-c3ccncc3)c2)C(=O)c2sc3c(F)ccc(F)c3c2Cl)CC1 (stereo not drawn)
Response given: 53.2

Challenge: How about `COc1ccc(-c2ccc3c(N4CCOC[C@@H]4C)nc(N4CCOC[C@@H]4C)nc3n2)cc1CO` ?
Response given: 4.42

Challenge: Now give it for `CC(C)CC(=O)N[C@H](C(=O)N[C@H](C(=O)N[C@@H](CC(C)C)[C@@H](O)CC(=O)N[C@@H](C)C(=O)N[C@@H](CC(C)C)[C@@H](O)CC(=O)O)C(C)C)C(C)C` too.
Response given: 14.5

Challenge: And `Cc1cn([C@@H]2O[C@H](CO)[C@@H](O)[C@@H]2F)c(=O)[nH]c1=O` ?
Response given: 95

---

# Test system: NOMO1
# method.summary: cell viability relative to DMSO control; higher = less cytotoxic
# test.settings: RPMI 5 mM glucose + 10% dialyzed FBS; 48 h; 0.00234 µM
Recorded cell viability by entry
Numeric only. Scale: %

Completed entries (count: 5):
# molecule, assay.value
rows = [
    ("O=C(Nc1c(Cl)cncc1Cl)c1ccc(OC(F)F)c(OCC2CC2)c1", 106),
    ("COc1cc(OC)c(/C=C/[S+](=O)([O-])Cc2ccc(OC)c(NCC(=O)[O][Na])c2)c(OC)c1", 128),
    ("COc1ccc(-c2ccc3c(N4CCOC[C@@H]4C)nc(N4CCOC[C@@H]4C)nc3n2)cc1CO", 63.9),
    ("CNC(=O)c1ccc(N2C(=S)N(c3ccc(C#N)c(C(F)(F)F)c3)C(=O)C23CCC3)cc1F", 93.1),
    ("COc1ccc(C2CNC(=O)C2)cc1OC1CCCC1 (centres undefined)", 94.5),
]

Challenge: // query cell viability value for entry Nc1nc(N)c2nc(CNc3ccc(C(=O)NC(CCC(=O)O)C(=O)O)cc3)cnc2n1 (centres undefined)
Response given: 117

Challenge: // next record `CCn1c(-c2nonc2N)nc2cnc(Oc3cccc(NC(=O)c4ccc(OCCN5CCOCC5)cc4)c3)cc21`
Response given: 107

Challenge: How about this molecule: `CN1C[C@H]2c3ccccc3Oc3ccc(Cl)cc3[C@@H]2C1`
Response given: 86.1

Challenge: Same question, `NC(=O)c1ccc(I)c([N+](=O)[O-])c1` this time
Response given: 120

---

# System: SEM cells
# method.summary: cell viability relative to DMSO control; higher = less cytotoxic
# test.settings: RPMI 5 mM glucose + 10% dialyzed FBS; 48 h; 0.0211 µM
Label T when cell viability is strictly below 90%; otherwise label F.

Examples with answers:
# molecule, measured.target, label
data = [
    ("Nc1nc(N)c2nc(CNc3ccc(C(=O)NC(CCC(=O)O)C(=O)O)cc3)cnc2n1 (centres undefined)", "SEM cells", "F"),
    ("O=C(O)c1ccc2c(c1)nc(Nc1cccc(Cl)c1)c1ccncc12", "SEM cells", "F"),
    ("OC1CCC(Nc2ncc3nc(Nc4c(F)cc(F)cc4F)n([C@@H]4CCOC4)c3n2)CC1 (some centres undefined)", "SEM cells", "F"),
]

Challenge: Answer whether the molecule `CC(C)NC[C@@H](C(=O)N1CCN(c2ncnc3c2[C@H](C)C[C@H]3O)CC1)c1ccc(Cl)cc1` has cell viability strictly less than 90%
Response given: T

Challenge: And for `COc1ncc(-c2ccc3nccc(-c4ccnnc4)c3c2)cc1N[S+](=O)([O-])c1ccc(F)cc1F` ?
Response given: T

Challenge: Field entry: `COCCCN1CCC(NC(=O)c2cc(Cl)c(N)c3c2OCC3)CC1`
Response given: F

---

Recorded measurements of cell viability, one per entry
# Tested on: P12-Ichikawa
# method.summary: cell viability relative to DMSO control; higher = less cytotoxic
# test.settings: HPLM + 10% dialyzed FBS; 48 h; 5.12 µM
State the value with its unit after it.

Solved entries (count: 6):
# compound, cell viability
data = [
    ("O=c1[nH]c2ccccc2n1C1CCN(Cc2ccc(-c3nc4cc5nc[nH]c5cc4nc3-c3ccccc3)cc2)CC1", "105%"),
    ("COc1ncc(-c2ccc3nccc(-c4ccnnc4)c3c2)cc1N[S+](=O)([O-])c1ccc(F)cc1F", "35.8%"),
    ("CC(C)C(=O)Oc1ccc(CO)cc1[C@H](CCN(C(C)C)C(C)C)c1ccccc1", "86.2%"),
    ("CC(N)C12CC3CC(CC(C3)C1)C2 (configuration not stated)", "110%"),
    ("O=C(O)c1ccc2c(c1)nc(Nc1cccc(Cl)c1)c1ccncc12", "94.8%"),
    ("C=C[C@H]1CN2CC[C@H]1C[C@H]2[C@H](O)c1ccnc2ccc(OC)cc12", "108%"),
]

Now, please, on to the next compound.
Challenge: Fill blank: measured cell viability of the compound `CC(C)CC(=O)N[C@H](C(=O)N[C@H](C(=O)N[C@@H](CC(C)C)[C@@H](O)CC(=O)N[C@@H](C)C(=O)N[C@@H](CC(C)C)[C@@H](O)CC(=O)O)C(C)C)C(C)C` is ____.
Response given: 105%

---

# Tested on: P12-Ichikawa
# method.summary: cell viability relative to DMSO control; higher = less cytotoxic
# test.settings: RPMI 5 mM glucose + 10% dialyzed FBS; 48 h; 15.4 µM
property.measured: cell viability (%)
Entry rule: numbers only, all in %.

Observe how each entry below is paired with its result.
# compound, units.text, cell viability
rows = [
    ("CN[C@@H]1[C@H](O)[C@H](NC)[C@H]2O[C@@]3(O)C(=O)C[C@@H](C)O[C@H]3O[C@@H]2[C@H]1O", "%", 107),
    ("CC(C)(C)c1[nH]cnc1/C=c1\\[nH]c(=O)/c(=C/c2ccccc2)[nH]c1=O", "%", 2.24),
    ("O=C(c1ccc(Nc2nccc(-c3cc4ccccc4s3)n2)cc1)N1CCC(N2CCCC2)CC1", "%", 63.8),
    ("CCn1c(-c2nonc2N)nc2cnc(Oc3cccc(NC(=O)c4ccc(OCCN5CCOCC5)cc4)c3)cc21", "%", 74.9),
    ("C=C(C)[C@H]1Cc2c(ccc3c2O[C@@H]2COc4cc(OC)c(OC)cc4[C@@H]2C3=O)O1", "%", 34),
    ("COc1ccc(C2CNC(=O)C2)cc1OC1CCCC1 (configuration not stated)", "%", 109),
    ("Cc1c(NC(=O)OC[C@@H]2COCCN2)cn2ncnc(Nc3ccc4c(cnn4Cc4cccc(F)c4)c3)c12", "%", 82.8),
    ("Cc1[nH]c2ccccc2c1CCNCc1ccc(/C=C/C(=O)NO)cc1", "%", 6.95),
]

Now let's try a different one.
Challenge: Give the measured cell viability of `COc1cc2c(cc1OC)CC(=O)N(CCCN(C)C[C@H]1Cc3cc(OC)c(OC)cc31)CC2.Cl` .
Response given: 98.1
